Below, each entry is listed alongside its reported koff.
Biological target: T1, HuCTLA4-HuIgG1 (fusion protein of the extracellular part of human CD152 and human Fc gamma 1, CTLA4-Ig) (human, UniProt P16410 36-161)
T1 construct: extracellular domain; also called CTLA4-hFc; CTLA4-Fc; not shown: human Fc gamma 1
T1 sequence (P16410 36-161 limits assumed): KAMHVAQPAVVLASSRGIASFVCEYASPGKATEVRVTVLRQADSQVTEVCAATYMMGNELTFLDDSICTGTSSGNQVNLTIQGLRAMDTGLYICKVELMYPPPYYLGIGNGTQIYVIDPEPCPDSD
Test: SPR, Biacore T100, CTLA4-Ig amine-coupled
Please respond with the number in s⁻¹ and leave the unit unwritten.

# count of solved cases: 3
4CTLAPMP02C11 (VHH, short label tied to the entry by the clone code only; not shown: C-terminal c-myc tag and His6 tag) VHH: EVQLVESGGGLVQPGGSLRLSCAASGNIFTRHIMGWYRQAPGKQRELVASITPGDNINYADSVKGRFTISRDGAKNTVYLQMNSLKPEDTAVYYCNAHGSILLDRTNYWGQGTQVTVSS	0.0235
4CTLAPMP10G5 (VHH, short label tied to the entry by the clone code only; not shown: C-terminal c-myc tag and His6 tag) VHH: EVQLVESGGGLVQAGGSLRLSCAASGGTFSRYIMAWFRQAPGKEREFVAVIDGSGYSTDYAGSVKGRFTIARDNTKNTAYLQMNSLKPEDTALYFCGAGRQYSTGPYWYDYWGQGTQVTVSS	0.00618
4CTLAPMP11F1 (VHH, short label tied to the entry by the clone code only; also called 11F1 WT; not shown: C-terminal c-myc tag and His6 tag) VHH: EVQLVESGGGLVQAGGSLRLSCAASGGTFSFYGMGWFRQAPGKEQEFVADIRTSAGRTYYADSVKGRFTISRDNAKNTVYLQMNSLKPEDTAVYYCAAEMSGISGWDYWGQGTQVTVSS	0.0187

GET /value?item= 4CTLAPMP13B2 (VHH, short label tied to the entry by the clone code only; not shown: C-terminal c-myc tag and His6 tag) VHH: EVQLVESGGGLVQPGGSLRLSCVASGIHFAISTINWYRQAPGKQRESVAAITGTSVTGYADSVKGRFTLSRDNAKNTVYLQMDNLKPEDTAVYYCNVWSGRDYWGQGTQVTVSS &field=koff returns 0.0067
